Test system: P388 leukemia ip, CD2F1 mice, survival T/C
Method summary: NCI In Vivo Anticancer Drug Screen. Data for tumor model P388 Leukemia (intraperitoneal) in CD2F1 (CDF1) mice
Condition summary: endpoint: median survival time; dose: 200.0 mg/kg/injection; schedule: Q01DX001 (ip); vehicle: saline with Tween-80; higher = longer survival
Toxic doses and inconclusive results are not listed.
# T/C annotations

# annotated cases, reported T/C shown
// T/C lookup, key: O=C1OCCCCOC(=O)c2ccccc2SSc2ccccc21 99 % of control

// T/C lookup, key: CC1(C)C(N2CCOCC2)C(c2ccccc2)S1(=O)=O (stereo not drawn) 95 % of control

// T/C lookup, key: CC(=O)OC1COC(Nc2cc(=O)n(C)c(=O)[nH]2)C(OC(C)=O)C1OC(C)=O (stereo not drawn) 100 % of control

// T/C lookup, key: Cc1cccc(C)c1NC(=O)CCC(=O)C(C)C(=O)c1ccc(O)cc1 (stereo not drawn) 100 % of control

// T/C lookup, key: Cc1ccc(N=S(C)(C)=O)cc1 104 % of control

// T/C lookup, key: NC(N)=N/N=C1\C(=O)N(c2cccc([N+](=O)[O-])c2)C(=O)C1C(=O)Nc1cccc([N+](=O)[O-])c1 (stereo not drawn) 100 % of control

// T/C lookup, key: Cc1ccc(S(=O)CC#CC#CCS(=O)c2ccc(C)cc2)cc1 (stereo not drawn) 101 % of control

Now for the compound whose T/C we want.
// T/C lookup, key: O=c1[nH]c(=O)n(CC(O)CO)cc1/C=C/Br (stereo not drawn) 101 % of control

// provenance: PubChem BioAssay AID330
